Target: CDK1 (Homo sapiens)
Construct: CDK1/cyclinB (h); with cyclin B
Sequence (P06493 whole entry): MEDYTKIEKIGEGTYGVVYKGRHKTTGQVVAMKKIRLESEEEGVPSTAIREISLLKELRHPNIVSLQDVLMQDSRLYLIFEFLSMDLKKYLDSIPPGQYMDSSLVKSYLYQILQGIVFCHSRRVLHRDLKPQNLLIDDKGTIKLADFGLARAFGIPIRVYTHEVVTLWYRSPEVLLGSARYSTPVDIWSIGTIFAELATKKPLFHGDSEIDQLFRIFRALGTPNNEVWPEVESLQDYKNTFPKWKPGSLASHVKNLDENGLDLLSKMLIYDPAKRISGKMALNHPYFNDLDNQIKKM
Sequence (P14635 whole entry partner): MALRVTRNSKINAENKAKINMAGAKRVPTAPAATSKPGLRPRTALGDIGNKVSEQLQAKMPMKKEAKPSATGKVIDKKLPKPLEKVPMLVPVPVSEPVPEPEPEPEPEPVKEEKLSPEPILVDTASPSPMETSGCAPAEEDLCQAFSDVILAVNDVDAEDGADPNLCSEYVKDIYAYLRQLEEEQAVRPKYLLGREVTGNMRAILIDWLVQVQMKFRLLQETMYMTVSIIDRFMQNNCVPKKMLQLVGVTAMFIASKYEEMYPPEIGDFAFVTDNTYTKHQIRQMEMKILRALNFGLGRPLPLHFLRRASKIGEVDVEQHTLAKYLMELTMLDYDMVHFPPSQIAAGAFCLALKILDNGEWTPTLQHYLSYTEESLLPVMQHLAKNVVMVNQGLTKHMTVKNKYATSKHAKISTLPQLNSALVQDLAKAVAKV
Experiment: radiometric kinase assay ([…]-ATP, histone H1); also MS of K33 modification, K33R pull-down/WB, CETSA
pIC50: −log10 of the molar value.
Measurement name: pIC50

With CDK1 (Homo sapiens) as the test system, provide measured pIC50 for this molecule: C#CCNC(=O)c1cc(Nc2cc(C3CC3)[nH]n2)nc(N2CCN(C(=O)CCC(=O)OC(=C)N(C)S(=O)(=O)c3ccc(C)cc3)CC2)n1 [X1]
5.22 to 5.70

====

Target: CDK2 (Homo sapiens, UniProt P24941)
Construct: CDK2/cyclinA (h); with cyclin A
Assay: radiometric kinase assay ([…]-ATP, histone H1); also K33R pull-down/WB
Measurement name: IC50

Answer with reported IC50 of C#CCNC(=O)c1cc(Nc2cc(C3CC3)[nH]n2)nc(N2CCN(C(=O)CCC(=O)OC(=C)N(C)S(=O)(=O)c3ccc(C)cc3)CC2)n1 [X1]
2 to 6 µM
